Target: GFP-FBXW7α (human, UniProt Q969H0 1-707)
Sequence (Q969H0 whole entry): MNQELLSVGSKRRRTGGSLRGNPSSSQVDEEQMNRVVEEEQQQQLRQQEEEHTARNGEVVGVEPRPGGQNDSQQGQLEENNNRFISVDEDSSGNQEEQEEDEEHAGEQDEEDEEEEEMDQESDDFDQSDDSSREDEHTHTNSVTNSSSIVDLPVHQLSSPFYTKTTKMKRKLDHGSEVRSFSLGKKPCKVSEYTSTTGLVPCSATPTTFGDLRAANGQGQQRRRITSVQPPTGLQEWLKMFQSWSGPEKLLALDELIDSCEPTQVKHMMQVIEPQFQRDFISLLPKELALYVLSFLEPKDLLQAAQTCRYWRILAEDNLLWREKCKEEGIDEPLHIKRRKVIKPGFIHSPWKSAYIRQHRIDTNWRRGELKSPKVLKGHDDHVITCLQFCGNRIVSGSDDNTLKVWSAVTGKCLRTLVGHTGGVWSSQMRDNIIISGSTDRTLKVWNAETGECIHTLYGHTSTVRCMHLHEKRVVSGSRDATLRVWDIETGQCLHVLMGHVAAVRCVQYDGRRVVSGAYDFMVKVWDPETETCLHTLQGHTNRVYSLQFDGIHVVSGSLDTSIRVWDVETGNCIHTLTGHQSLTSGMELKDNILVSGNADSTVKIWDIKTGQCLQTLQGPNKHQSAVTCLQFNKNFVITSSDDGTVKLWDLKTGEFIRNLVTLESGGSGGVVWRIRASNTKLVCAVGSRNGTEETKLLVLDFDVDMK
Assay: MST
pKd: −log10 of the molar value.
MEASUREMENT_NAME: pKd

BINDER	ENDPOINT_RESULT
APSEDIWKKFELLPTPPLSP [MYC-MB1 (WT) peptide]	3.16
APSEDIWKKFELLPAPPLSP [MB1-T58A peptide]	2.67
APSEDIWKKFELLPDPPLSP [MB1-T58D peptide]	3.96
